- test-system: SERT (Rattus norvegicus)
- Sequence (P31652 whole entry): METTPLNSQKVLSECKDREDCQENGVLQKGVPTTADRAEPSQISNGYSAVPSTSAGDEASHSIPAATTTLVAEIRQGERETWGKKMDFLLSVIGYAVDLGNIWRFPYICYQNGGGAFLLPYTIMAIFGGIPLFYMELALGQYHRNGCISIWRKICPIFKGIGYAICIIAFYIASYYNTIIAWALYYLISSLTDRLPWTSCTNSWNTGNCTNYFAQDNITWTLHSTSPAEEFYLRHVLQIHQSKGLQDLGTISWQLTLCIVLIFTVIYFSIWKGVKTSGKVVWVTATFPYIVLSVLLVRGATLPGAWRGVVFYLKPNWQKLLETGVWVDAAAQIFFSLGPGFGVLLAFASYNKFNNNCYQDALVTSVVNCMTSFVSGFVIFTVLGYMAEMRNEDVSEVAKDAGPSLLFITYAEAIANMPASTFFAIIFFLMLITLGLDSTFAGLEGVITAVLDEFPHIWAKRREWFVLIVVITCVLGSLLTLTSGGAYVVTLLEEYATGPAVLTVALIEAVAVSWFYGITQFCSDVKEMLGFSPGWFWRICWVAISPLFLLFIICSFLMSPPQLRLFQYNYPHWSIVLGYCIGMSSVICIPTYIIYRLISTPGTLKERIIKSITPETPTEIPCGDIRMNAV
- protocol-notes: Release activity of phenethylamine analogs, SERT
- Format: biochemical
Record form. Attribute: pEC50. Fill in for each entry.
Reminder that pEC50 means the negative base-10 logarithm of the concentration expressed in mol/L.

Problem: I am curious: what pEC50 value has been reported for Cc1ccccc1CC(C)N (centres unmarked) ?
Result: 6.01

Problem: I am curious: what pEC50 value has been reported for CC(N)Cc1cccc(C(F)(F)F)c1 (centres unmarked) ?
Result: 6.98

Problem: I am curious: what pEC50 value has been reported for CCc1ccc(CC(C)N)cc1 (centres unmarked) ?
Result: 7.44

Problem: I am curious: what pEC50 value has been reported for CC(N)Cc1ccc(Cl)cc1 (centres unmarked) ?
Result: 7.67

Problem: I am curious: what pEC50 value has been reported for COc1cccc(CC(C)N)c1 (centres unmarked) ?
Result: 6.48

Problem: I am curious: what pEC50 value has been reported for COc1ccc(CC(C)N)cc1 (centres unmarked) ?
Result: 7.20

Problem: I am curious: what pEC50 value has been reported for Cc1cccc(CC(C)N)c1 (centres unmarked) ?
Result: 6.66

Problem: I am curious: what pEC50 value has been reported for CCc1cccc(CC(C)N)c1 (centres unmarked) ?
Result: 6.80

Problem: I am curious: what pEC50 value has been reported for CC(N)Cc1ccc(C(C)C)cc1 (centres unmarked) ?
Result: 7.10

Problem: I am curious: what pEC50 value has been reported for CC(N)Cc1cccc(F)c1 (centres unmarked) ?
Result: 5.71

Problem: I am curious: what pEC50 value has been reported for CC(N)Cc1ccc(OC(F)(F)F)cc1 (centres unmarked) ?
Result: 7.09

Problem: I am curious: what pEC50 value has been reported for Cc1ccc(CC(C)N)cc1 (centres unmarked) ?
Result: 7.27

Problem: I am curious: what pEC50 value has been reported for CC(N)Cc1ccc(F)cc1 (centres unmarked) ?
Result: 6.03
